# System Tested: RUNX1 (UniProt Q01196)
# Sequence (Q01196 whole entry): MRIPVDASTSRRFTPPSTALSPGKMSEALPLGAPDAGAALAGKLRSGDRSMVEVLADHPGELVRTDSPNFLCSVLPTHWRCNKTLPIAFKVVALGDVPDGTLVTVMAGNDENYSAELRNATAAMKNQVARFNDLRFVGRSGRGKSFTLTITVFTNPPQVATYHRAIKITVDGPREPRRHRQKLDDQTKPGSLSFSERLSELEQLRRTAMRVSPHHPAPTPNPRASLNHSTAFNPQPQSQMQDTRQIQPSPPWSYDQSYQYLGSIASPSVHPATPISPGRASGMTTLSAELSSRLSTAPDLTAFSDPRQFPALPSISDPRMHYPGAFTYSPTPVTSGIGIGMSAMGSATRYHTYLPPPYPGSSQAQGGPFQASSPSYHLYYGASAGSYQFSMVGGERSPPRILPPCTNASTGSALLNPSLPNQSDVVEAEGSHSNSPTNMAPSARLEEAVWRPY
# Protocol Summary: RUNX1 binding intensity (PBM fluorescence), RUNX1 alone (arbitrary fluorescence units); higher = stronger binding;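 note: Full-length recombinant human RUNX1 bound to double-stranded 36-bp genomic probes on a high-density microarray, scored as Alexa488 fluorescence per spot via anti-RUNX1 antibody, median of four replicate spots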
# Measurement Context: RUNX1 concentration 2 nM; ETS1 concentration 0 nM
Please mark t if the recorded RUNX1 binding intensity is equal to or greater than 900, and f if it falls below.

Chain: GCACTGTGGGAGGAAGTGGGTATGTGGTGAGCTCTT
Classification: f

Chain: TTGTCGGGTATGGGATGTGGGCAGAGAGTATGATGG
Classification: f

Chain: CTCTTTCACAAAGGAAATGGAAACCACAAAGAGGAC
Classification: t

Chain: CTTCGACCCCGGAAGCGCTAACCACCCCGGGGGCCG
Classification: f

Chain: CGGGGACCACTGTCAGGATGTGGTCACTGGAGTCAC
Classification: f

Reported RUNX1 binding intensity at or above 900? `GGTCTCACCGCTCTTCCGCTTGCGGTTTCGGGGGCC`
t

For this sequence, is measured RUNX1 binding intensity 900 or higher? `GGTTGTAAGTTCACAGGATGTGGTGTGTCCCTGTGG`
f

Has `CTTTGCAGGAAGCTGGGGTTCACCCACAGCCTTGTT` a recorded RUNX1 binding intensity greater than or equal to 900?
f

###

# System Tested: RUNX1 (UniProt Q01196)
# Protocol Summary: RUNX1 binding intensity (PBM fluorescence), RUNX1 alone (arbitrary fluorescence units); higher = stronger binding
# Measurement Context: RUNX1 concentration 2 nM; ETS1 concentration 0 nM
Cut-off 800 on RUNX1 binding intensity, inclusive. At or above means TRUE; below means FALSE.

Example entries begin here.
Chain: AGGTTCTCCAGAGGAGGAAGTGGTTTGCTGCAGGCT
Classification: FALSE

Chain: CCCTACCTCTCCTTCCTGCCACAAGGGAAAGTCACT
Classification: TRUE

Reported RUNX1 binding intensity at or above 800? `AGACGGTAGGCCAGGAAACCGCAGGCCCCTGCCGGG`
TRUE

For this sequence, is measured RUNX1 binding intensity 800 or higher? `AGAAGCTGCAGTCCCGGAAGCGGTTTTAGGGGGCCG`
FALSE

Can `AGGCCTCGCTTCCTCTCCTGACCACACCCTGCAGCT` be said to have RUNX1 binding intensity at or above 800?
TRUE

Quick check, RUNX1 binding intensity >= 800? `ACACACTGACTTCCTGTTGTGGGAGATAAAGTGTGG`
FALSE

Check this sequence for RUNX1 binding intensity at or above 800: `AGCCCGGCTTCCGGCGCGTGCCGCTGCGGCTGCAGG`
FALSE

Could you please find out whether `CTGACACTTCCGGGAGCCTTGTAGCCACAGGAATCA` has RUNX1 binding intensity that meets 800 or exceeds it?
FALSE

hey, is RUNX1 binding intensity for this one >= 800? `CTTAGTGTTTGAGGATGTGGGTTTTACAATCAGATC`
FALSE

###

# System Tested: RUNX1 (UniProt Q01196)
# Protocol Summary: RUNX1 binding intensity (PBM fluorescence), RUNX1 alone (arbitrary fluorescence units); higher = stronger binding
# Measurement Context: RUNX1 concentration 2 nM; ETS1 concentration 0 nM
Outcome Measure: RUNX1 binding intensity

Chain: AGACAGGAGTTCAGGAAGCTGCGGTCTAGATTATGT
System Tested: RUNX1 (UniProt Q01196)
RUNX1 binding intensity: 1210

Dear colleague, I am looking for the recorded RUNX1 binding intensity of the following sequence: `GCAGAGAGATTGGCCGGATGCGGTGGCTCACGCCTT`
683

Any idea what its RUNX1 binding intensity is? The sequence is `GCCCAGGGAAGCACTTCCTGCGGGGCGCGGTGCAGC`
744

Field request: RUNX1 binding intensity | item: `GATGCTCTAACAGGAAGTGGGTTAAGGAGCTGCACT`
673

Dear colleague, I am looking for the recorded RUNX1 binding intensity of the following sequence: `GCAGAAGGATTTCCTGTTTCAGGCAACCACAGCGAC`
773

Dear colleague, I am looking for the recorded RUNX1 binding intensity of the following sequence: `GTCCTCCACTATTGTTTCCGGCCGCAGCAGAGGCGG`
1070
